Biological target: T1, human CD20 (human, UniProt P11836 1-297)
T1 sequence (looked up): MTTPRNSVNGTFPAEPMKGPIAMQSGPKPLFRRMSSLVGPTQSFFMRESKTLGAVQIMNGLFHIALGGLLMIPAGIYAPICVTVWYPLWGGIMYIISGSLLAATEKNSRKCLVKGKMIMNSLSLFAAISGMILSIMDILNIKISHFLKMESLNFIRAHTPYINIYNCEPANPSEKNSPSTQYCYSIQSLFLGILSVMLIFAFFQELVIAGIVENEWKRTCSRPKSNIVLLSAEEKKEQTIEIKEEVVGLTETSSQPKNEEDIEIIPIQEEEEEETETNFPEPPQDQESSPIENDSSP
Assay: cell-based or functional assay
readout.type: EC50 µg/ml Ramos Apoptosis Annexin V (µg/mL)
Number in µg/mL, nothing else.

Some entries whose results are on file:
mAb 2.2.2 (antibody, human IgG1, V domains shown) VH: EVQLVQSGAEVKKPGESLKISCKGSGYSFTSYWIGWVRQMPGKGLEWMGIIYPGDSDTKYSPSFQGQVTISADKSISTAYLQWSSLKASDTAMYYCARQGDFWSGNGGMDVWGQGTTVTVSS VL: DIVMTQTPLSSPVTLGQPASISCRSSQSLVSRDGNTYLSWLQQRPGQPPRLLIYKISNRFSGVPDRFSGSGAGTDFTLKISRVEVEDVGVYYCMQATQFPITFGQGTRLEIK ... 0.373
mAb 1.6.2 (antibody, human IgG1, V domains shown) VH: EVQLVQSGAEVKKPGESLKISCKGSGYSFTSYWIGWVRQMPGKGLEWMGIIYPGDSDTRYSPSFQGQVTISADKSISTAYLQWSSLKASDTAMYYCARHGDYSNIDAFDIWGQGTMVTVSS VL: DVVMTQSPLSLPVTLGQPASISCRSSQSLVYSDGNAYLNWFQQRPGQSPRRLIYKVSNWDSGVPDRFSGSGSGTDFTLKIRRVEAEDVGAYYCMQGIHCTFGPGTKVHIK ... 0.67
mAb 1.13.2 (antibody, human IgG1, V domains shown, Human IgG1 kappa; also called 1.13.1; 50-001H1_13_1) VH: EVQLVQSGAEVKKPGESLKISCKGSGYSFTNYWIGWVRQMPGKGLEWMGIIYPGDSDTRYSPSFQGQVTISADKSISTAYLQWSSLKASDTAMYYCARQGDYYHYSGMDVWGQGTTVTVSS VL: DVVMTQSPLSLSVTLGQPASISCRSSQSLVYNDGDTYLNWFQQRPGQSPRLLIYKVSNWDSGVPDRFSGSGSGTDFTLKVSRVEAEDVGVYYCMQGTHWPLTFGGGTKVEIK ... 2.97

# context switch: different binder, same EC50 µg/ml Ramos Apoptosis Annexin V
Query: Entry under review: mAb 2.1.2 (ATCC Accession Number PTA-7328) (antibody, human IgG1, V domains shown, Human IgG1 kappa; also called 2.1.1; 50-001H2_1_1) VH: EVQLVQSGAEVKKPGESLKISCKGSGYSFTSYWIGWVRQMPGKGLEWMGIIYPGDSDTRYSPSFQGQVTISADKSISTAYLQWSSLKASDTAMYYCARQGDFWSGYGGMDVWGQGTTVTVSS VL: DIVMTQTPHSSPVTLGQPASISCRSSQSLVSRDGNTYLSWLQQRPGQPPRLLIYKISNRFSGVPNRFSGSGAGTDFTLKISRVKAEDVGVYYCMQATQFPLTFGQGTRLEIK . Reported EC50 µg/ml Ramos Apoptosis Annexin V?
Response: 0.163
